Data origin, for the record: PubChem BioAssay

Assign NADPH fluorescence slope to each entry below.
biological target: Voltage-gated potassium channel subunit beta-2 (Rattus norvegicus); test: enhancers of rat Kvbeta2 NADPH turnover – biochemical, NADPH fluorescence, primary screen (AID 623); details: Recombinant KvBeta, NADPH fluorescence decrease slope, 10 min; at 10 µM; stronger effect = lower value;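 further: fluorescence intensity change per second fitted from 20 to 320 s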
Format: numeric value only, no unit, no commentary.

Q: Look at this compound and give its reported NADPH fluorescence slope. Cc1nnc(SC(=O)N2c3ccccc3Sc3ccccc32)s1
Ans: -1.7e-05

Q: Next compound up: O=C(CCCN1C(=O)c2ccccc2C1=O)Oc1ccc(F)cc1
Ans: 1.4e-05

Q: Next compound up: Cc1cccc(-n2nnnc2SCc2csc(-c3ccccc3)n2)c1
Ans: -3.3e-05

Q: Next compound up: Cc1nnc(SCCCn2c(N3CCCCC3)nc3c2c(=O)[nH]c(=O)n3C)s1
Ans: -1.1e-05

Q: Next compound up: CCOC(=O)c1c(NC(=O)c2cccs2)sc2c1CCN(C(=O)OCC)C2
Ans: -6.6e-05

Q: Next compound up: CCCc1cc(C(=O)Nc2sc(C)c(C)c2C(=O)OCC)no1
Ans: -5.5e-06

Q: Next compound up: CCc1nnc(NC(=O)CCC(=O)Nc2ccccc2)s1
Ans: -6.1e-05

Q: Next compound up: CCOC(=O)N1CCN(C(=O)c2cnn(-c3ccccc3)c2NC(=O)c2ccccc2F)CC1
Ans: -3.7e-05

Q: Next compound up: FC(F)(F)c1nnc2ccc(NCn3nnc4ccccc43)nn12
Ans: 3.1e-05

Q: Next compound up: O=C(OCC#CCSc1nc2ccccc2o1)c1ccco1
Ans: 1.4e-05

Q: Next compound up: COc1ccc(CN2C(=O)c3cccnc3C2Nc2cc(Cl)ccc2OC)cc1 (stereo not drawn)
Ans: 0.00011

Q: Next compound up: COc1ccc2cc(C#N)c(NC(C)C)nc2c1
Ans: -0.000141

Q: Next compound up: OC(CN1CCCCC1)Cn1c(C(F)(F)F)nc2ccccc21 (stereo not drawn)
Ans: -7.1e-05

Q: Next compound up: COc1cc(OC)c(C(=O)Nc2ncn[nH]2)cc1OC
Ans: -0.000156

Q: Next compound up: COCCNc1nc(SCC(=O)N2CCN(c3ccccc3)CC2)nc2ccccc12
Ans: 4.2e-05

Q: Next compound up: Cc1c(NC(=O)CN2c3cccc4cccc(c34)S2(=O)=O)c(=O)n(-c2ccccc2)n1C
Ans: -2.5e-05

Q: Next compound up: COCCNC(=O)c1ccc(CS(=O)(=O)c2ccc(OC)cc2)o1
Ans: -5.4e-05

Q: Next compound up: COc1ccc(NC(=O)NCCN2C(=O)C3C4C=CC(C4)C3C2=O)cc1 (stereo not drawn)
Ans: -3.1e-05

----------
Assign fluorescence slope to each entry below.
target: Voltage-gated potassium channel subunit beta-2 (Rattus norvegicus) (UniProt P62483); assay: inhibitors of rat Kvbeta2 reductase activity – biochemical, NADPH fluorescence, primary screen (AID 622); conditions: recombinant KvBeta, 4-cyanobenzaldehyde reduction, at 10 µM, stronger effect = higher value;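 further: slope of raw intensity against log time taken from 70 to 1610 s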
Sequence (P62483 whole entry, looked up): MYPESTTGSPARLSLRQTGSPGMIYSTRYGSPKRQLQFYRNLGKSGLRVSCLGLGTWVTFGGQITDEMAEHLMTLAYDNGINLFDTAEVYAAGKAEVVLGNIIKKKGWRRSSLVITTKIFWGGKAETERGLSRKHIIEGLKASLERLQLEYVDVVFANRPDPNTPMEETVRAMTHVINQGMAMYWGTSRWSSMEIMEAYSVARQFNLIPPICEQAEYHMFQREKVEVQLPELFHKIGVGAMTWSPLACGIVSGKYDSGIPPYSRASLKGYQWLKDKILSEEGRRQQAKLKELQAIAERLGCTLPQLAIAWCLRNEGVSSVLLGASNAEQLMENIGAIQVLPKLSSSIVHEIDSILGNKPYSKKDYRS
Format: numeric value only, no unit, no commentary.

Q: Look at this molecule and give its reported fluorescence slope. O=C(CCCSc1nc2ccccc2s1)NC1=NCCS1
Ans: -0.409

Q: Next molecule up: Cc1ccc(N(Cc2ccco2)C(=O)c2cccc(S(=O)(=O)N(C)C)c2)cc1
Ans: -0.393

Q: Next molecule up: COc1ccc(C(NC(C)=O)c2ccc3cccnc3c2O)c(OC)c1 (stereo unspecified)
Ans: -0.37

Q: Next molecule up: CN(C)c1ccc(/C=C/C(O)=C2/C(=O)N(C)C3(C)CC2c2ccccc2O3)cc1 (stereo unspecified)
Ans: -0.521

Q: Next molecule up: Cc1nc2c(=O)oc3ccccc3c2n1-c1ccccc1
Ans: -0.519

Q: Next molecule up: COC(=O)C(F)(F)Sc1c(C)[nH]c2ccccc12
Ans: -0.444

Q: Next molecule up: Cc1cc(C)nc(SCc2nnc(SCC(=O)Nc3ncc(C)s3)n2Cc2ccco2)n1
Ans: -0.353

Q: Next molecule up: CC(C)CN(CC(C)C)C(=O)C12CCC(C)(C(=O)C1)C2(C)C (stereo unspecified)
Ans: -0.452

Q: Next molecule up: CCCCSc1nc2c(cnn2-c2ccc(Cl)cc2)c(=O)[nH]1
Ans: -0.426

Q: Next molecule up: CC(=O)NCCC(=O)Nc1ccc(C)c(F)c1
Ans: -0.451

Q: Next molecule up: NC(=O)CSc1nnc(-c2cnccn2)n1-c1ccccc1
Ans: -0.501

Q: Next molecule up: CCN(CC)S(=O)(=O)c1ccc(N2CCCC2)c(C(=O)OCC(=O)/C(C#N)=C(\C)N)c1
Ans: -0.428

Q: Next molecule up: Cc1ccc2[nH]c3c(=O)n(CCCN4CCN(C)CC4)cnc3c2c1
Ans: -0.38

Q: Next molecule up: O=C(Nc1ccc2oc(-c3ccncc3)nc2c1)c1cccs1
Ans: -0.346

Q: Next molecule up: CC(C)OC(=O)CSc1nnc(-c2ccco2)n1N
Ans: -0.422

Q: Next molecule up: COc1ccc(CNc2oc(-c3cccc4ccccc34)nc2C#N)cc1
Ans: -0.183

Q: Next molecule up: Oc1ccc(C=Nc2cccc3ncccc23)c(O)c1
Ans: -0.483

Q: Next molecule up: O=C(CCCN1C(=O)c2ccccc2C1=O)NCc1cccnc1
Ans: -0.42

Q: Next molecule up: CC1(C)CN=C(N2CCN(c3ncnc4sc5c(c34)CCCC5)CC2)S1
Ans: -0.379

Q: Next molecule up: Cc1sc2nc(SCc3nc4ccccc4[nH]3)n(Cc3ccco3)c(=O)c2c1C
Ans: -0.59

Q: Next molecule up: O=C(c1cccc2c1C(=O)N(Cc1cccnc1)C2)N1CCN(c2ccccc2)CC1
Ans: -0.365

Q: Next molecule up: O=C(Nc1ccc2oc(=O)ccc2c1)c1cccnc1
Ans: -0.434

Q: Next molecule up: CCOC(=O)C(NC(=O)CC)(Nc1ccc(S(=O)(=O)Nc2onc(C)c2C)cc1)C(F)(F)F (stereo unspecified)
Ans: -0.61

Q: Next molecule up: CCOc1nc(NCCC2=CCCCC2)nc(N2CCOCC2)n1
Ans: -0.364

Q: Next molecule up: Cc1n[nH]c(C)c1N1C(=O)c2cccc3cc(Br)cc(c23)C1=O
Ans: -0.375

Q: Next molecule up: O=C(Nc1ccc2[nH]c3c(c2c1)CCCC3)c1ccco1
Ans: -0.288

Q: Next molecule up: CC(C)(C)C1CCc2c(sc3c2C(=O)NC(c2ccco2)N3)C1 (stereo unspecified)
Ans: -0.506

Q: Next molecule up: CC(C)(C)c1ccc(C(=O)N2CCC(C(=O)NCc3ccncc3)CC2)cc1
Ans: -0.368

Q: Next molecule up: COc1cccc(OCCSc2nnc3sc4ccccc4n23)c1
Ans: -0.463

Q: Next molecule up: Cc1cc(NC(=O)CSc2nc(C3CC3)nc3sc4c(c23)CCC(C)C4)no1 (stereo unspecified)
Ans: -0.394

Q: Next molecule up: N#Cc1c(N2C(=O)C3C4C=CC(C4)C3C2=O)sc2c1CCC2 (stereo unspecified)
Ans: -0.417
